- target-entity: D(3) dopamine receptor (Homo sapiens)
- measurement-notes: qHTS of D3 Dopamine Receptor Antagonist: qHTS; note: % is set by controls: 0 for no effect and ±100 for the full control effect
- run-parameters: D3R cells, DiscoveRx beta-arrestin luminescence, antagonist mode
Screen size: about 360,000 compounds; about 9,100 (2.5%) were called active. Inconclusive results (about 4%) are left out. Cut-off read from the data, not from the text of the source: active = max response below about -50%; inconclusive = no clear call, values can overlap the other calls; inactive = above that. This is one part of a sample in which actives are shown more often than they occur.
Choose one outcome from this list and give only that: YES for active, NO for inactive

Ask: In this assay, the call recorded for "Cn1c(=O)n(C)c2cc(S(=O)(=O)N3CCCc4ccccc43)ccc21" was what?
Result: NO

Ask: # outcome recorded in this test, key = "CC(=O)Nc1cnc(-c2ccc(O)cc2C)cn1"
Result: NO

Ask: Assay outcome for CCCC(NS(=O)(=O)c1ccc(OC)cc1)C(=O)O (stereo unspecified) : what was it?
Result: NO

Ask: Please let me know the test result on file for "COc1ccccc1C(=O)NCCC(=O)NC1=NCCS1" .
Result: NO

Ask: What call does the record list for "COc1ccc(-c2[nH][nH]c(=O)c2NC(=O)c2ccc([N+](=O)[O-])cc2)cc1" ?
Result: NO

Ask: For "COc1ccc(C(=O)OCC(=O)NCC2CCCCC2)cc1S(=O)(=O)N1CCCc2ccccc21" , which call appears in the assay record?
Result: NO

Ask: Hello, I am checking results. What call was entered for CC1(C(=O)NCc2ccco2)Cc2c(-c3ccc4c(c3)OCO4)ccnc2O1 (stereo unspecified) ?
Result: NO

Ask: Hi, sorry to bother you, what did the test record for "O=C(NC1=NCCS1)c1ccc(Cl)s1" ?
Result: YES

Ask: Answer briefly: the call reported for "O=C(Nc1cc(Br)ccc1F)c1nc[nH]c1C(=O)NCc1ccccc1" in this assay.
Result: NO

Ask: For "COc1cc(C)c(C)cc1S(=O)(=O)N1CCCc2ccccc21" , what call appears in the results of this test?
Result: YES

Ask: Fill in: this test's call for "CN(c1ccccc1)S(=O)(=O)c1ccc(C(=O)NCc2cccnc2)cc1" is ___
Result: NO

---

Exercise: state measured max response, negative = inhibition for each of the compounds provided.
- target-entity: D(3) dopamine receptor (Homo sapiens)
- measurement-notes: qHTS of D3 Dopamine Receptor Antagonist: qHTS; note: % is set by controls: 0 for no effect and ±100 for the full control effect
- run-parameters: D3R cells, DiscoveRx beta-arrestin luminescence, antagonist mode; active compounds read low
In all, about 360,000 compounds went through this assay and about 9,100 (2.5%) were called active. About 4% were inconclusive and are not listed. This is one part of a sample in which actives are shown more often than they occur.

Reported max response, negative = inhibition for COC(=O)c1ccc(CN2C(=O)C(Cc3ccccc3)ON=C2c2ncccc2C)o1 (configuration not stated) was 14.2% (inactive)

Form: compound = "Cc1cc(C)cc(C(=O)NC(=S)Nc2ccc3[nH]c(=O)[nH]c3c2)c1" ; max response, negative = inhibition = -10.1% (inactive)

Reported max response, negative = inhibition of "CCCCC(=O)N(C)c1c(CC)nc2c(OCc3ccc(S(C)(=O)=O)cc3)cccn12" : 0% (inactive)

Value of measured max response, negative = inhibition for the entry CC(C)CN1C(=O)CN(S(C)(=O)=O)CC1(C)C(=O)NCc1ccccc1 (configuration not stated) : 18.8% (inactive)

Entry O=C(Nc1ccc(F)c([N+](=O)[O-])c1)C1CC(=O)N(Cc2ccccc2)C1 (configuration not stated) — recorded max response, negative = inhibition = 16.3% (inactive)

The compound listed as "CCc1nc2c(OCc3ccc(Cl)cc3Cl)cccn2c1N(C)C(=O)C(C)C" shows max response, negative = inhibition equal to -27.6% (inactive)

Form: compound = "COCCCNC(=O)c1ccc(-c2c(C)noc2C)c2ccoc12" ; max response, negative = inhibition = 0% (inactive)

# max response, negative = inhibition of "Cc1cc2[nH]ncc2cc1NC(=S)NC(=O)c1ccccc1" = -53.9% (active)

Form: compound = S=c1[nH]nc(-c2ccc(Cl)cc2)n1CC1CCCO1 (configuration not stated) ; max response, negative = inhibition = -72% (active)

Noted for "O=C(CCS(=O)(=O)c1cccc2nsnc12)N1CCN(c2ccccc2F)CC1" : its max response, negative = inhibition reads 1.65% (inactive)

max response, negative = inhibition reported for this compound CCC1OC(C2CC2)CC2=C1C(=O)OC(C)(C)O2 (configuration not stated) : 14.7% (inactive)

According to the records, this compound "CCc1nc2c(OCC(N)=O)cccn2c1N(C)C(=O)c1ccc(OC)cc1" displays max response, negative = inhibition of 0% (inactive)

Query "CCn1c(-c2ccncc2)n[nH]c1=S" yields max response, negative = inhibition of 0.921% (inactive)

Short answer for CCNC(=O)C1(C)CCN(C(=O)c2ccccc2)C1 (configuration not stated) : max response, negative = inhibition was 0% (inactive)

CCOC(=O)C(C(=O)c1ccccc1)C(c1ccccc1)c1nccc2ccccc12 (configuration not stated) yielded max response, negative = inhibition of -11.4% (inactive)

Entry Cc1cc(=O)oc2cc(NC(=O)C3CC(=O)N(Cc4ccccc4)C3)ccc12 (configuration not stated) — recorded max response, negative = inhibition = -60.6% (active)

Data point: "N#CC1=C(N)C(C#N)(C#N)[C@H](c2ccsc2)[C@H]2COCC=C12" ; max response, negative = inhibition = -56% (active)

Record summary for Cc1cc(=O)oc2cc(NC(=O)C(C)Oc3ccccc3)ccc12 (configuration not stated) : reported max response, negative = inhibition = 18.8% (inactive)

Sure, the documented max response, negative = inhibition for Cc1nnc(SCC(=O)NNC(=O)c2ccc(Cl)cc2)n1CC1CCCO1 (configuration not stated) is -18.7% (inactive)

Memo: "CCc1nc2c(OCCOc3ccccc3)cccn2c1N(C)C(=O)c1ccc(OC)cc1" , reported max response, negative = inhibition: -76.4% (active)

Looking up CCc1ccc(OC2(C)CCN(CCOc3ccc(C)cc3)C2)cc1 (configuration not stated) , I found its max response, negative = inhibition recorded as -75% (active)

// field: max response, negative = inhibition; key: "CCc1nc2c(OCCOc3ccccc3)cccn2c1N(C)C(=O)c1ccccc1F" ; value = 14.9% (inactive)
